System: CASKI
Test: Primary qHTS to identify gynecologic anti-cancer compounds using libraries of approved drugs and bioactive compounds (AID 1345084); further: nearly all actives have a fitted effect of over 55% in size
Conditions: Gynecologic cancer cell panel viability, ATPlite luminescence, 48 h; series mostly up to 57.5 µM
Results filed as inconclusive are left out. Active and inactive are the calls of the source. The call rests on the fitted dose curve; in most records, active means well fitted cell-killing curve with a large enough effect; inconclusive means small, poorly fitted or top-dose-only effect, or effect the other way; inactive means flat fitted curve, though single readings scatter.
Valid outcomes are listed here; reply with one: active, inactive

CCC(C)C1NC(=O)C(C(C)=O)=C1O (stereo not given)    inactive

Q: What classification did "C=CCN1CCC2(C)c3cc(O)ccc3C[C@H]1[C@H]2C" end up with in this test?
Ans: inactive

Q: Entry "O=C(OC[C@H]1O[C@@H](Oc2ccc(O)cc2CO)[C@H](O)[C@@H](O)[C@@H]1O)c1ccccc1" : call = ?
Ans: inactive

Q: Returns: the outcome recorded for "CS[C@]1(CO)C(=O)N2[C@H]3C(=CC=C[C@@H]3O)C[C@@]2(SC)C(=O)N1C" in this assay.
Ans: inactive

Q: Record lookup: outcome of this test for "CC(C)=CCC[C@]1(C)C=Cc2c(O)c3c(c(CC=C(C)C)c2O1)O[C@]12C(=C[C@@H]4CC1C(C)(C)O[C@@]2(C/C=C(/C)C(=O)O)C4=O)C3=O" ?
Ans: active

Q: Returns: the outcome recorded for "C[C@H](Nc1ncnc2nc[nH]c12)c1nc2ccc(F)cc2c(=O)n1-c1ccccc1" in this assay.
Ans: inactive

Q: What is the recorded call for this compound in the test? "COC1(C[S@@](=O)c2ccccc2)CCN(CCc2c[nH]c3ccc(F)cc23)CC1"
Ans: inactive

Q: Please indicate how the test categorized CO[C@@H]1[C@H](O)[C@@H](O[C@@H]2C[C@H]3CC[C@@H]4C(CC[C@]5(C)[C@@H](C6=CC(=O)OC6)CC[C@]45O)[C@@]3(C)[C@H](O)C2)O[C@H](C)[C@@H]1O (stereo not given in full) .
Ans: active

Q: What did this assay record as the result for "COc1ccc2[nH]c(-c3ccccc3)c(CCN(C)C)c2c1" ?
Ans: inactive

Q: Assay result, entry C=C1C2(C)CC3C(C)(O)C4=CC(=O)OC(C)(C)C4=CCC3(C)C13C(=O)OC(C)C3(O)C2=O (stereo not given) — outcome?
Ans: inactive

---

Test system: CAOV3
Assay: Primary qHTS to identify gynecologic anti-cancer compounds using libraries of approved drugs and bioactive compounds (AID 1345084); further: nearly all actives have a fitted effect of over 55% in size
Details: Gynecologic cancer cell panel viability, ATPlite luminescence, 48 h; series mostly up to 57.5 µM
Records with an inconclusive call do not appear. Activity calls are given as the source filed them. Calls follow the shape of the dose curve; as a rule, active = well fitted cell-killing curve with a large enough effect; inconclusive = small, poorly fitted or top-dose-only effect, or effect the other way; inactive = flat fitted curve, though single readings scatter.
result_type: outcome

O=C(NCCN1CCC2(CC1)C(=O)NCN2c1cccc(F)c1)c1ccc2ccccc2c1    inactive
C=C1C(=O)O[C@@H]2[C@H]3C(=C)[C@@H](O)C[C@H]3C(=C)C[C@@H](O)[C@@H]12    inactive
COc1ccc(CN(C(=O)[C@@H](N)Cc2c(C)cc(C(N)=O)cc2C)[C@@H](C)c2ncc(-c3ccccc3)[nH]2)cc1C(=O)O    inactive

---

Experiment: qHTS for Inhibitors of the Functional Ribonucleoprotein Complex (vRNP) of Lassa (LASV) Arenavirus: Viability assay - alamar blue signal for LASV Primary Screen (AID 1347083); further: nearly all actives have a fitted effect of over 80% in size
Details: cell viability, alamar blue fluorescence (LASV minigenome counter-screen); series mostly up to 57.5 µM
Results filed as inconclusive are left out. Calls of active or inactive are those of the source. Calls follow the shape of the full dose curve; tested in HEK293 reporter line.
Respond with a class label; see t (active), f (inactive)

Worked cases, answers included:
O=c1cc(-c2ccccc2F)[nH]c2cc3c(cc12)OCO3    f
COc1cc2cc(Oc3ccc4ccc(=O)oc4c3)c(=O)oc2cc1OC1OC(COC(=O)CC(C)(O)CC(=O)O)C(O)C(O)C1O (centres undefined)    f
CS(=O)(=O)N(Cc1ccco1)CC(O)Cn1c2ccccc2c2ccccc21 (centres undefined)    f
COc1ccc(Nc2cc(-c3cnc(N)nc3)nc(N3CCOCC3)n2)cn1    t

Q: Please let me know the test result on file for N#CC(c1ccc(Cl)cc1)c1c(Cl)cc(-n2ncc(=O)[nH]c2=O)cc1Cl (centres undefined) .
Ans: f

Q: State the result this test recorded for C[C@H]1O[C@H](O[C@H]2[C@H](O)[C@@H](O)[C@@H](O[C@H]3[C@H](O)[C@@H](O)C(O)O[C@H]3CO)O[C@H]2CO)[C@H](O)[C@@H](O)[C@H]1N[C@H]1C=C(CO)[C@@H](O)[C@H](O)[C@@H]1O (some centres undefined) .
Ans: f

Q: For "Nc1[nH]nc2nnc(-c3c(-c4ccccc4)nn4ccccc34)cc12" , which call appears in the assay record?
Ans: f

Q: Assay outcome for "Oc1ccc(Cn2cc[nH]c2=S)cc1" : what was it?
Ans: f

Q: Would you mind telling me which call this test gave CCC(NC(C)C)C(O)c1ccc(O)c(O)c1 (centres undefined) ?
Ans: f

Q: I would be grateful if you could indicate the recorded call for CC1CC(C)C(=O)C1=O (centres undefined) .
Ans: f

Q: For "CCCCCc1ccco1" , what call appears in the results of this test?
Ans: f

Q: Tell me the recorded outcome of this test for "O=Cc1ccc(O)cc1O" .
Ans: f

Q: How was CC=C1C2C=C(C)CC1(N)c1ccc(=O)[nH]c1C2 (centres undefined) classified in this test?
Ans: f

Q: Hey, what did the test say about "COc1cc2ncnc(Nc3cc(Br)c(O)c(Br)c3)c2cc1OC" ?
Ans: t
